# System: Hs-68 cells
# ASSAY NOTES: Cytotoxicity noted in the CMV assays (table footnote)
# Format: cell-based
# RUN PARAMETERS: asterisk in PRA CMV, Group 1 Table 1
Marks after values point to notes of the source that are not given here.
READOUT NAME: Cytotoxic at this concentration

COMPOUND: Cc1ccccc1CN(CC(=O)Nc1ccc(-c2csc(N)n2)cc1)C(=O)Cc1ccccn1 [Example 127]
READOUT NAME: Cytotoxic at this concentration
ASSAY RESULT: 25* μM
//
COMPOUND: Nc1nc(-c2ccc(NC(=O)CN(CC3CCCCC3)C(=O)C3CCCC3)cc2)cs1 [Example 63]
READOUT NAME: Cytotoxic at this concentration
ASSAY RESULT: >21* μM
//
COMPOUND: CCCC(CCC)N(CC(=O)Nc1ccc(-c2csc(N)n2)cc1)C(=O)C1CCCCC1 [Example 82]
READOUT NAME: Cytotoxic at this concentration
ASSAY RESULT: 7* μM
//
COMPOUND: Nc1nc(-c2ccc(NC(=O)CN(Cc3ccccc3)C(=O)Cc3cccnc3)cc2)cs1 [Example 113]
READOUT NAME: Cytotoxic at this concentration
ASSAY RESULT: >50* μM
//
COMPOUND: Nc1nc(-c2ccc(NC(=O)CN(CC3CCCCC3)S(=O)(=O)N3CCOCC3)cc2)cs1 [Example 107]
READOUT NAME: Cytotoxic at this concentration
ASSAY RESULT: 12* μM
//
COMPOUND: CCC(CC)C(=O)N(CC(=O)Nc1ccc(-c2csc(N)n2)cc1)Cc1ccccc1 [Example 104]
READOUT NAME: Cytotoxic at this concentration
ASSAY RESULT: >18* μM

Data provenance: patent US6348477B1
